- assayed system: T1, recombinant human TREM2 protein (amino acids 19 to 174) (human, UniProt Q9NZC2 19-174)
- T1 construct: range 19-174
- T1 sequence (looked up): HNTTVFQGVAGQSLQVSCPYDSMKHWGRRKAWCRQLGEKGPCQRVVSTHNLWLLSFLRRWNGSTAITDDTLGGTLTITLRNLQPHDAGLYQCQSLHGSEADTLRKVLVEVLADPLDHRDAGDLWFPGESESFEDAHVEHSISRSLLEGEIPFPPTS
- procedure details: ELISA, crude VHH extract on coated TREM2, anti-HA-HRP; positive if OD450 more than five times the control
- Method: Crude antibodies were obtained by osmotic bursting. The TREM2 recombinant proteins were diluted in 100 mM NaHCO₃ of pH 8.3, respectively. An ELISA plate was then coated with 100 μg of the proteins and left at 4° C. overnight. 100 μL of the obtained crude antibody extract was transferred to the ELISA plate into which the antigen was added. The plate was incubated at room temperature for 1 h. […] The absorbance value was read at the wavelength of 450 nm on a microplate reader. […]
property measured: binding result

single-domain antibody 2B5 (VHH, Crude extract from E. coli (pMECS vector), detected through an HA tag) VHH: ESGGGLVQPGGSLRLSCAASGFAFSNYVMHWYRQAPEKERELVALIGSQGGAYTNYAGSVKGRFTISRDNTKNMVYLQMNNLKPEDTAVYYCNVVYNGRPNWGQGTQVTVSS | binds
single-domain antibody 11H2 (VHH, Crude extract from E. coli (pMECS vector), detected through an HA tag) VHH: ESGGGLVQPGGSLRLSCAASGLTFSEYYMSWVRQVPGKARELVAGITRGGNTYYADSVKGRFTISRDNAKNTVYLQMNNLKPEDTTVYYCNARRATTYYWGQGTQVTVSS | binds
